Origin of the recorded values: patent US11541029B2

Tested on: SLAC/DB/DB obese mice
Experiment: Blood glucose and blood lipid levels in DB/DB mice
Format: in vivo
Details: 30 mg/kg transdermally once per day
Protocol: HPCs in the present disclosure lowered blood glucose levels and blood lipid levels in mice models (SLAC/DB/DB, obese mice, n=7). […] The blood glucose levels were measured once per week and blood lipid levels were measured once every other week.
ASSAY ENDPOINT: Cholesterol (total), Day 1 (mmol/L)
# unit: mmol/L | format: bare number

I would be grateful if you could share the reported Cholesterol (total), Day 1 for `CCN(CC)CCOC(=O)c1ccccc1OC(=O)c1ccccc1OC(C)=O.Cl` . 6.6

I would be grateful if you could share the reported Cholesterol (total), Day 1 for CC(=O)O.CCN(CC)CCOC(=O)c1ccccc1O [P-10, diethylaminoethyl salicylate.AcOH] . 6.8

I would be grateful if you could share the reported Cholesterol (total), Day 1 for `CC(=O)Oc1ccc(-c2ccc(F)cc2F)cc1C(=O)O.CCN(CC)CCOC(=O)c1cc(-c2ccc(F)cc2F)ccc1OC(C)=O` . 6.8

I would be grateful if you could share the reported Cholesterol (total), Day 1 for `CCN(CC)CCOC(=O)c1ccccc1OC(=O)c1ccccc1O.Cl` . 7.7
